SYSTEM TESTED: PTP1B (Homo sapiens)
Sequence (P18031 whole entry, species assumed): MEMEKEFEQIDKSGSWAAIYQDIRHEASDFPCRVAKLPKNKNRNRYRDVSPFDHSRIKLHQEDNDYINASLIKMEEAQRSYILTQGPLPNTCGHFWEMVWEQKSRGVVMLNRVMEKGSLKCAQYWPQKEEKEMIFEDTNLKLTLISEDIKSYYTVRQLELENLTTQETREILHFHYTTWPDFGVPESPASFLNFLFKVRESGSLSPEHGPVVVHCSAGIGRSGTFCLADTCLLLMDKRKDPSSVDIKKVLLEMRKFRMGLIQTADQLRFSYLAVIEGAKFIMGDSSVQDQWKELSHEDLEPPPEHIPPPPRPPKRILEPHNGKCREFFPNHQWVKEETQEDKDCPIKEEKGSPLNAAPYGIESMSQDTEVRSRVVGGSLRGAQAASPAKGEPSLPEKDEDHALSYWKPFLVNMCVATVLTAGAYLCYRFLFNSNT
MEASUREMENT NOTES: PTP1B enzyme activity assay
Format: biochemical
EXPERIMENTAL CONDITIONS: read-out: IC50 PTP1B, DiFMUP substrate
pIC50: −log10 of the molar value.
VALUE TYPE: pIC50

Bench note: what pIC50 did CC1(N)CCN(c2cnc(-c3cccc(Cl)c3Cl)c(N)n2)CC1 [SHP099] show? < 4.00

====

SYSTEM TESTED: UniProt P29350
Sequence (P29350 whole entry): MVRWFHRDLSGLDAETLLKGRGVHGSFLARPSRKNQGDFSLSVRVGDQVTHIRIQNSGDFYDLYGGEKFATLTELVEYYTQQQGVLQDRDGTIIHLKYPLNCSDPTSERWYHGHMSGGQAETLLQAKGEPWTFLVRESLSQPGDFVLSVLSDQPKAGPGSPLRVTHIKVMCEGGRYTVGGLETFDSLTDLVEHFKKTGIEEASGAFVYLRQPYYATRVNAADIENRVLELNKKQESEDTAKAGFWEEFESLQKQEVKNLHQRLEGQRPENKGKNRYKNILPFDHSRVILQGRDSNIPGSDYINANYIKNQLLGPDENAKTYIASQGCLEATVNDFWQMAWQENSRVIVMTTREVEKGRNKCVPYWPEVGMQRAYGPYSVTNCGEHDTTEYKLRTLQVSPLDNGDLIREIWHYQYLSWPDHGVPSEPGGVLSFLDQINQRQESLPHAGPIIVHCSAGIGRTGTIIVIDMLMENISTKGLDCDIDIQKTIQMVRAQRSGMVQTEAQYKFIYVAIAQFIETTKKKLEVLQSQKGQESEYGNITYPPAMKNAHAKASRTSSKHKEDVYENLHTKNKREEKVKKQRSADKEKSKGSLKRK
pIC50: −log10 of the molar value.
VALUE TYPE: pIC50

Query: pIC50; subject: CC1(N)CCN(c2cnc(-c3cccc(Cl)c3Cl)c(N)n2)CC1 [SHP099] < 4.00

Source of measurements: paper PMC8927994
